# credit: patent US20260042834A1

- Assayed target: T1, corticotropin-releasing hormone (CRH) peptide (human and mouse (same sequence), not fully specified)
- T1 peptide: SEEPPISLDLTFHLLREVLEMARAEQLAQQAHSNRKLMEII
- Assay notes: cell-based or functional assay
Measured metric: hCRHR1 Luciferase Reporter Assay IC50 (nM)

| Binder | Recorded measurement |
| --- | --- |
| PR302334-27 (antibody, human IgG1, kappa, V domains shown) VH: EVQLVESGGGLVQPGGSLRLSCAASGFTFSTYAMSWVRQAPGKGLEWVASIRSGGTTYYPDSVKGRFTISRDNSKNSLYLQMNSLRAEDTAVYYCTRGIDWGQGTTVTVSS VL: DIQMTQSSLSASVSLGDRVTITCKASQSVNNDVAWYQQKPGKAPRLLIYYASNRYTGVPSRFSGSGSGTDFTFTISSLQPEDLATYFCQQDYSSWTFGGGTKVEIKR | 1.36 |
| PR302334-5 (antibody, human IgG1, kappa, V domains shown) VH: EVKLVESGGGLVKPGGSLKLSCAASGFTFSTYAMSWVRQTPEKRLEWVASIRSGGTTYYPDSVKGRFTISRDNARNILYLQMSSLRSEDTAIYYCTRGIDWGQGTLVTVSA VL: DIQMTQSSLSASVSLGDRVTITCKASQSVNNDVAWYQQKPGKAPRLLIYYASNRYTGVPSRFSGSGSGTDFTFTISSLQPEDIATYYCQQDYSSWTFGGGTKVEIKR | 0.325 |
| PR302334-4 (antibody, human IgG1, kappa, V domains shown) VH: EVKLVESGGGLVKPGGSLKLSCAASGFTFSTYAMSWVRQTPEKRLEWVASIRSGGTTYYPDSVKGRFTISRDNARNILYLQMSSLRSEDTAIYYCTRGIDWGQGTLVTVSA VL: DIVMTQSPDSLAVSLGERATINCKASQSVNNDVAWYQQKPGQPPRLLIYYASNRYTGVPDRFSGSGSGTDFTLTISSLQAEDLAVYFCQQDYSSWTFGGGTKVEIKR | 0.553 |
| PR302334-8 (antibody, human IgG1, kappa, V domains shown) VH: EVQLVESGGGLVQPGGSLRLSCAASGFTFSTYAMSWVRQAPGKGLEWVASIRSGGTTYYPDSVKGRFTISRDNSKNTLYLQMNSLRAEDTAVYYCTRGIDWGQGTTVTVSS VL: EIVMTQSPATLSVSPGERATLSCKASQSVNNDVAWYQQKPGQAPRLLIYYASNRYTGIPARFSGSGSGTEFTLTISSLQSEDLAVYFCQQDYSSWTFGGGTKVEIKR | 0.816 |
| PR302334-18 (antibody, human IgG1, kappa, V domains shown) VH: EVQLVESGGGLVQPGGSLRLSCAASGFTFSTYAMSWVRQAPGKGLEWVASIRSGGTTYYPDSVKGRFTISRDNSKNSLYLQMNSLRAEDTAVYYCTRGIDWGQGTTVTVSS VL: NIVMTQTPKFLLVSAGDRITITCKASQSVNNDVAWYQQKPGQSPKLLIYYASNRYTGVPDRFTGSGYGTDFTFTISTVQAEDLAVYFCQQDYSSWTFGGGTNLEIKR | 0.279 |
| PR004290 (antibody, human IgG1, kappa, V domains shown, Series 1; human IgG1 wildtype Fc; also called Hybridoma Clone 28b3) VH: EVQLVESGGVLVQPGGSLRLSCAASGFTFSSYWMTWVRQAPGKGLEWVANIKQDGSEKYYVDSVKGRFTISRDNAKNSLFLQMNSLRAEDTAVYYCARTLIFDYWGQGTLVTVSS VL: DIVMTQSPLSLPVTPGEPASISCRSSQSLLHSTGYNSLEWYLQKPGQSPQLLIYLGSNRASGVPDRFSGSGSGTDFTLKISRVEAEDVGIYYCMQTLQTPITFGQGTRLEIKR | 1.83 |
| PR302334-7 (antibody, human IgG1, kappa, V domains shown) VH: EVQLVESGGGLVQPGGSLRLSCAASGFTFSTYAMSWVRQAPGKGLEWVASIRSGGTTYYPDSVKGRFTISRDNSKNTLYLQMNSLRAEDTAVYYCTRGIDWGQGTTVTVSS VL: EIVMTQSPATLSVSPGERATLSCKASQSVNNDVAWYQQKPGQAPRLLIYYASNRYTGIPARFSGSGSGTEFTLTISSLQSEDFAVYYCQQDYSSWTFGGGTKVEIKR | 0.996 |
| PR302334-11 (antibody, human IgG1, kappa, V domains shown) VH: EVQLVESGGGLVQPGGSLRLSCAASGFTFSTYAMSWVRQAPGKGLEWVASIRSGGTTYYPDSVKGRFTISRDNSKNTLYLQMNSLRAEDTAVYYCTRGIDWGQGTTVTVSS VL: DIQMTQSSLSASVSLGDRVTITCKASQSVNNDVAWYQQKPGKAPRLLIYYASNRYTGVPSRFSGSGSGTDFTFTISSLQPEDIATYYCQQDYSSWTFGGGTKVEIKR | 1 |
| PR302334-26 (antibody, human IgG1, kappa, V domains shown) VH: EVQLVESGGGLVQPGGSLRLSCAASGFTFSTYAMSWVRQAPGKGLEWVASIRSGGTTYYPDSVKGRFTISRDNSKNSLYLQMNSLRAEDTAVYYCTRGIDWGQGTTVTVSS VL: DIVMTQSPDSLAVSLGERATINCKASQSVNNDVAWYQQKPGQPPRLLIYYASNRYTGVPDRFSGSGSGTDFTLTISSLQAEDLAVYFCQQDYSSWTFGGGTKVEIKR | 1.1 |
| PR302334-15 (antibody, human IgG1, kappa, V domains shown) VH: EVQLVESGGGLVKPGGSLRLSCAASGFTFSTYAMSWVRQAPGKGLEWVSSIRSGGTTYYPDSVKGRFTISRDNAKNSLYLQMNSLRAEDTAVYYCARGIDWGQGTTVTVSS VL: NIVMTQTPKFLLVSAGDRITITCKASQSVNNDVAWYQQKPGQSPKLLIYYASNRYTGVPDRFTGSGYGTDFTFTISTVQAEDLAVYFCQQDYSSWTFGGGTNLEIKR | 5.12 |
